Biological target: T1, extracellular domain of rhesus monkey BCMA (rhesus monkey, UniProt F7FFA0 1-53)
T1 construct: extracellular domain; also called RhBCMA
T1 sequence (F7FFA0 entry or part of it): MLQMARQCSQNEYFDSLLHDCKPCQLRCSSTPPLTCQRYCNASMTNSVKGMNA
Test: Octet BLI; Fab 200 nM
pKd: −log10 of the molar value.
Quick reference: pKd of the listed items.
measured.parameter: pKd

binder	reported.result
AB200-(2Vk44)_R2-VH-v7 (Fab, V domains shown) VH: QVQLVQSGAEVKKPGSSVKVSCKASGGTYSNYWIHWVRQAPGQGLEWMGATYRSHSTTYYAQKFKSRVTITADKSTSTAYMELSSLRSEDTAVYYCARGAIYHGFDVIDNWGQGTLVTVSS VL: DIQMTQSPSSLSASVGDRVTITCRASQSISSYINWYQQKPGKAPKLLIYATSNLQIGVPSRFSGSGSGTDFTLTISSLQPEDFATYYCQQYRRLPWSFGQGTKLEIKR	7.14
AB200-(2Vk44)_R2-VH-v24 (Fab, V domains shown) VH: QVQLVQSGAEVKKPGSSVKVSCKASGGTFSNYWIHWVRQAPGQGLEWMGGTYRSHSDTYYNEKFKSRVTITADKSTSTAYMELSSLRSEDTAVYYCARGAIFHGYDVIDNWGQGTLVTVSS VL: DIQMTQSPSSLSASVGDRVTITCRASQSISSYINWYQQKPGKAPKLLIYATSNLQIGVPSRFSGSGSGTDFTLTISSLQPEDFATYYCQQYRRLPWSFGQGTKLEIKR	7.68
AB200-(2Vk44)_R2-VH-v22 (Fab, V domains shown) VH: QVQLVQSGAEVKKPGSSVKVSCKASGGTFSNYWIHWVRQAPGQGLEWMGGTYRSQSDTYYNQKFKSRVTITADKSTSTAYMELSSLRSEDTAVYYCARGAVYHGYDVIDNWGQGTLVTVSS VL: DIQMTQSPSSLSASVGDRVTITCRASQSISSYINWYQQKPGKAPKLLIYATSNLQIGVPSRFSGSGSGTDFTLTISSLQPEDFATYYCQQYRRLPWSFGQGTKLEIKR	7.96
